Measured IC50 on Tyrosine-protein phosphatase non-receptor type 1 (Homo sapiens, UniProt P18031) follows.
Sequence (P18031 whole entry): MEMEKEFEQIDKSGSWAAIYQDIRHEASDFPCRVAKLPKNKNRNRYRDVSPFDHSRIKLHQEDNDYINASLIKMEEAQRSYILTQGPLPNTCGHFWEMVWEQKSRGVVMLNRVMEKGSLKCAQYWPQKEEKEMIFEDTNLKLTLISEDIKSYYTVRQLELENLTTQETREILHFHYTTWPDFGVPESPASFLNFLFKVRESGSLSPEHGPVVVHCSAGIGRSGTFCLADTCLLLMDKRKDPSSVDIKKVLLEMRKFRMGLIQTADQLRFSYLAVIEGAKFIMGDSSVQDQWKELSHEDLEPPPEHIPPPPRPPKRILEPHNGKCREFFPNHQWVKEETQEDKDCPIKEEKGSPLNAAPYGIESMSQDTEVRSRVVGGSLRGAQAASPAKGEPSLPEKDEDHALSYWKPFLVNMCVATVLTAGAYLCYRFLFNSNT
Answers are plain numbers, in µM.

Prompt: What does the record list as IC50 for O=S(=O)(Nc1ccc2oc(-c3ccccc3)nc2c1)c1ccccc1O ?
Response: 76

Prompt: Next record, please: O=S(=O)(Nc1ccc(-c2nc3cc(NS(=O)(=O)c4cccc(O)c4)ccc3o2)cc1)c1cccc(O)c1
Response: 38

We now examine a further compound.
Prompt: What does the record list as IC50 for O=S(=O)(Cc1ccccc1)Nc1ccc(-c2nc3cc(NS(=O)(=O)Cc4ccccc4)ccc3o2)cc1 ?
Response: 23

###

EXPERIMENTAL SYSTEM: E. coli GroEL/ES (Escherichia coli, UniProt P0A6F5)
Sequence (P0A6F5 whole entry, looked up): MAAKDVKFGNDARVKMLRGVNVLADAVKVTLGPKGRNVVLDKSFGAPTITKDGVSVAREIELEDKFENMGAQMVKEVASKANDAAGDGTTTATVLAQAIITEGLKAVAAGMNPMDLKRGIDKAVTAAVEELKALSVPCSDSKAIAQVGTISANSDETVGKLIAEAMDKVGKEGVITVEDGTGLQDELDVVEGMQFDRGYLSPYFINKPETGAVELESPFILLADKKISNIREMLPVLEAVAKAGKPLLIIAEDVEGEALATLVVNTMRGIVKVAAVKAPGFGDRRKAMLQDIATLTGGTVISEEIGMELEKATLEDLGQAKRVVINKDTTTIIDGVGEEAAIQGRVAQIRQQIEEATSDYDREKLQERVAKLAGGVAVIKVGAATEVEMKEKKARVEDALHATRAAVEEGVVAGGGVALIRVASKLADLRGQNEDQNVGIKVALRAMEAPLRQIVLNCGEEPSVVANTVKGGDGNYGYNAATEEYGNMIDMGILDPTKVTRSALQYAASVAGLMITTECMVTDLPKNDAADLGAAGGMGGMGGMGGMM
ASSAY SUMMARY: Inhibition of Escherichia coli GroEL expressed in Escherichia coli DH5alpha/Escherichia coli GroES expressed in Escherichia coli BL21 (DE3) assessed as reduction in GroEL/GroES-mediated denatured rhodanese refolding by measuring rhodanese enzyme activity after 45 mins by Fe(SCN)3 dye based spectrometric analysis
Decide using IC50 alone. Strictly below 200 µM: y. Equal to or above 200 µM: n.

Examples with answers:
Prompt: Just wondering, is IC50 of O=S(=O)(Nc1ccc(-c2nc3ccccc3o2)cc1)c1ccccc1O below 200 µM?
Response: y

Prompt: Next record, please: O=S(=O)(Nc1ccc(-c2nc3ccccc3o2)cc1)c1ccc(F)c(C(F)(F)F)c1
Response: y

Prompt: Next record, please: COc1cccc(S(=O)(=O)Nc2ccc3oc(-c4ccccc4)nc3c2)c1
Response: n

Prompt: Next record, please: O=S(=O)(Nc1ccc(-c2nc3ccccc3o2)cc1)c1ccc(C(F)(F)F)cc1
Response: y

Prompt: Next record, please: Cc1cccc(S(=O)(=O)Nc2ccc(-c3nc4ccccc4o3)cc2)c1
Response: y

Prompt: Next record, please: C=Cc1ccc(S(=O)(=O)Nc2ccc(-c3nc4ccccc4o3)cc2)cc1
Response: y

---
Prompt: Just wondering, is IC50 of O=S(=O)(Nc1ccc2oc(-c3ccccc3)nc2c1)c1ccc(Cl)s1 below 200 µM?
Response: n

Prompt: Next record, please: O=[N+]([O-])c1cc(S(=O)(=O)Nc2ccc3oc(-c4ccccc4)nc3c2)ccc1Cl
Response: y

Prompt: Next record, please: O=S(=O)(Nc1ccc2oc(-c3ccccc3)nc2c1)c1cccc(C(F)(F)F)c1
Response: y

Prompt: Next record, please: O=S(=O)(Nc1ccc2oc(-c3ccccc3)nc2c1)c1ccccc1Cl
Response: y

Prompt: Next record, please: O=S(=O)(Nc1ccc2oc(-c3ccccc3)nc2c1)c1ccc(C(F)(F)F)cc1
Response: y

Prompt: Next record, please: O=S(=O)(Nc1ccc(-c2nc3ccccc3o2)cc1)c1ccc(Cl)cc1
Response: y

Prompt: Next record, please: O=S(=O)(Nc1ccc2oc(-c3ccccc3)nc2c1)c1ccc(Cl)c(C(F)(F)F)c1
Response: y

Prompt: Next record, please: COc1ccc(Cl)cc1S(=O)(=O)Nc1ccc2oc(-c3ccccc3)nc2c1
Response: y

Prompt: Next record, please: O=S(=O)(Nc1ccc(-c2nc3ccccc3o2)cc1)c1ccc(Cl)c(Cl)c1
Response: y

Prompt: Next record, please: O=S(=O)(Nc1ccc(-c2nc3ccccc3o2)cc1)c1ccccc1F
Response: y

Prompt: Next record, please: O=S(=O)(Nc1ccc2oc(-c3ccccc3)nc2c1)c1cccc(O)c1
Response: y

Numbers sourced from ChEMBL document CHEMBL4387722.
